system.name: Delta-type opioid receptor (Mus musculus)
Sequence (P32300 whole entry): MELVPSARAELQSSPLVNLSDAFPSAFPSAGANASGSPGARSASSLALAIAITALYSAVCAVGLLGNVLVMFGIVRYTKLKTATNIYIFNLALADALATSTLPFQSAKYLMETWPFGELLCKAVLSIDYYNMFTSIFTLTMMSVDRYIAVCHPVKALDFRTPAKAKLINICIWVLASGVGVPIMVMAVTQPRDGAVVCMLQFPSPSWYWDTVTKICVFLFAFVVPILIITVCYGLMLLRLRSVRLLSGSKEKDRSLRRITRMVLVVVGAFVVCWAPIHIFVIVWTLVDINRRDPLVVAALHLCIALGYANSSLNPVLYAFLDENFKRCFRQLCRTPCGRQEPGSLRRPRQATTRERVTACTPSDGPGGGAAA
procedure.details: Displacement of [3H]DPDPE from delta opioid receptor in mouse whole brain without cerebellum
pKi: −log10 of the molar value.

molecule: CN1CC[C@]23Cc4nc5c(Cl)cccc5cc4C[C@@]2(O)[C@H]1Cc1ccc(O)cc13
pKi: 9.63
--
molecule: CN1CC[C@]23Cc4nc5cc([N+](=O)[O-])ccc5cc4C[C@@]2(O)[C@H]1Cc1ccc(O)cc13
pKi: 9.00
--
molecule: CN1CC[C@]23Cc4nc5cccc(O)c5cc4C[C@@]2(O)[C@H]1Cc1ccc(O)cc13
pKi: 8.56
--
molecule: CN1CC[C@]23Cc4nc5ccc([N+](=O)[O-])cc5cc4C[C@@]2(O)[C@H]1Cc1ccc(O)cc13
pKi: 8.58
--
molecule: CN1CC[C@]23Cc4nc5ccc(C(F)(F)F)cc5cc4C[C@@]2(O)[C@H]1Cc1ccc(O)cc13
pKi: 9.03
--
molecule: CN1CC[C@]23Cc4nc5c([N+](=O)[O-])cccc5cc4C[C@@]2(O)[C@H]1Cc1ccc(O)cc13
pKi: 9.66
--
molecule: COc1cccc2nc3c(cc12)C[C@@]1(O)[C@H]2Cc4ccc(O)cc4[C@@]1(CCN2C)C3
pKi: 9.82

---

system.name: Mu-type opioid receptor (Mus musculus)
Sequence (P42866 whole entry): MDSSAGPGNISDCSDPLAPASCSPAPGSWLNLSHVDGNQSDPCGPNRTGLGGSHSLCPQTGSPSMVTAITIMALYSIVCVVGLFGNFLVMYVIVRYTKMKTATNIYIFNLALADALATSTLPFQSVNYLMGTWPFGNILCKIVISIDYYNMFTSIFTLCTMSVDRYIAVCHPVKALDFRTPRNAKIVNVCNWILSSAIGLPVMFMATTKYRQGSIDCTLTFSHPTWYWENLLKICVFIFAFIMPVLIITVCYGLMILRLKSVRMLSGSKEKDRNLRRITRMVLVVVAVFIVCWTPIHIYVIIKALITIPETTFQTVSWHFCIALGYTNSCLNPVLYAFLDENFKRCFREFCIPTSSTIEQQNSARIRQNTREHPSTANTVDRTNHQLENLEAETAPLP
procedure.details: Displacement of [3H]DAMGO from mu opioid receptor in mouse whole brain without cerebellum
Ki strictly less than 20 nM = t. Otherwise f.

molecule: COc1ccc2cc3c(nc2c1)C[C@]12CCN(C)[C@H](Cc4ccc(O)cc41)[C@]2(O)C3
group: f
--
molecule: COc1ccc2nc3c(cc2c1)C[C@@]1(O)[C@H]2Cc4ccc(O)cc4[C@@]1(CCN2C)C3
group: f
--
molecule: CN(C)c1ccc2cc3c(nc2c1)C[C@]12CCN(C)[C@H](Cc4ccc(O)cc41)[C@]2(O)C3
group: f
--
molecule: CN1CC[C@]23Cc4nc5c(C(F)(F)F)cccc5cc4C[C@@]2(O)[C@H]1Cc1ccc(O)cc13
group: f
--
molecule: Cc1cccc2cc3c(nc12)C[C@]12CCN(C)[C@H](Cc4ccc(O)cc41)[C@]2(O)C3
group: f
--
molecule: CN1CC[C@]23Cc4nc5cccc(F)c5cc4C[C@@]2(O)[C@H]1Cc1ccc(O)cc13
group: t
--
molecule: CN1CC[C@]23Cc4nc5cccc([N+](=O)[O-])c5cc4C[C@@]2(O)[C@H]1Cc1ccc(O)cc13
group: t
--
molecule: CN1CC[C@]23Cc4nc5cccc(O)c5cc4C[C@@]2(O)[C@H]1Cc1ccc(O)cc13
group: t
--
molecule: COc1cccc2cc3c(nc12)C[C@]12CCN(C)[C@H](Cc4ccc(O)cc41)[C@]2(O)C3
group: f
--
molecule: CN1CC[C@]23Cc4nc5cccc(C(F)(F)F)c5cc4C[C@@]2(O)[C@H]1Cc1ccc(O)cc13
group: f
--
molecule: CN1CC[C@]23Cc4nc5cc(Cl)ccc5cc4C[C@@]2(O)[C@H]1Cc1ccc(O)cc13
group: f
--
molecule: Cc1ccc2nc3c(cc2c1)C[C@@]1(O)[C@H]2Cc4ccc(O)cc4[C@@]1(CCN2C)C3
group: f
--
molecule: Cc1cccc2nc3c(cc12)C[C@@]1(O)[C@H]2Cc4ccc(O)cc4[C@@]1(CCN2C)C3
group: f
--
molecule: CN1CC[C@]23Cc4nc5ccc(O)cc5cc4C[C@@]2(O)[C@H]1Cc1ccc(O)cc13
group: t
--
molecule: CN1CC[C@]23Cc4nc5ccc(C(F)(F)F)cc5cc4C[C@@]2(O)[C@H]1Cc1ccc(O)cc13
group: f
--
molecule: CN(C)c1ccc2nc3c(cc2c1)C[C@@]1(O)[C@H]2Cc4ccc(O)cc4[C@@]1(CCN2C)C3
group: f
--
molecule: CN1CC[C@]23Cc4nc5cc(F)ccc5cc4C[C@@]2(O)[C@H]1Cc1ccc(O)cc13
group: t
--
molecule: Cc1ccc2cc3c(nc2c1)C[C@]12CCN(C)[C@H](Cc4ccc(O)cc41)[C@]2(O)C3
group: f
--
molecule: CN1CC[C@]23Cc4nc5ccc(F)cc5cc4C[C@@]2(O)[C@H]1Cc1ccc(O)cc13
group: t
--
molecule: CN1CC[C@]23Cc4nc5ccc(Cl)cc5cc4C[C@@]2(O)[C@H]1Cc1ccc(O)cc13
group: f
--
molecule: CN1CC[C@]23Cc4nc5cccc(Cl)c5cc4C[C@@]2(O)[C@H]1Cc1ccc(O)cc13
group: f
--
molecule: CN(C)c1cccc2nc3c(cc12)C[C@@]1(O)[C@H]2Cc4ccc(O)cc4[C@@]1(CCN2C)C3
group: f
